Test system: human Ramos B cells stimulated with human IL-4 (JAK1 and JAK3 kinases, CD23 upregulation)
Test: Ramos B-cell line stimulated with IL-4 (CD23 upregulation, FACS)
Format: cell-based
Conditions: IL-4 50 units/mL, 20-24 hours, anti-CD23-PE FACS, read-out: Example 3 IC50 (Ramos B-cell line stimulated with IL-4, CD23)
metric name: IC50 (nM)
Please reply with the bare figure in nM and do not write the unit itself.

## Task # IC50 lookup, item C#CCOc1ccc(Nc2nc(Nc3ccc(C)c(S(N)(=O)=O)c3)ncc2F)cc1 [Compound I]
## Result 56

Provenance of the data: patent US20110028503A1
